Kindly supply the reported IC50 values for the records listed here.
assay-system: UniProtKB Q9NR96
Sequence (Q9NR96 26-1032): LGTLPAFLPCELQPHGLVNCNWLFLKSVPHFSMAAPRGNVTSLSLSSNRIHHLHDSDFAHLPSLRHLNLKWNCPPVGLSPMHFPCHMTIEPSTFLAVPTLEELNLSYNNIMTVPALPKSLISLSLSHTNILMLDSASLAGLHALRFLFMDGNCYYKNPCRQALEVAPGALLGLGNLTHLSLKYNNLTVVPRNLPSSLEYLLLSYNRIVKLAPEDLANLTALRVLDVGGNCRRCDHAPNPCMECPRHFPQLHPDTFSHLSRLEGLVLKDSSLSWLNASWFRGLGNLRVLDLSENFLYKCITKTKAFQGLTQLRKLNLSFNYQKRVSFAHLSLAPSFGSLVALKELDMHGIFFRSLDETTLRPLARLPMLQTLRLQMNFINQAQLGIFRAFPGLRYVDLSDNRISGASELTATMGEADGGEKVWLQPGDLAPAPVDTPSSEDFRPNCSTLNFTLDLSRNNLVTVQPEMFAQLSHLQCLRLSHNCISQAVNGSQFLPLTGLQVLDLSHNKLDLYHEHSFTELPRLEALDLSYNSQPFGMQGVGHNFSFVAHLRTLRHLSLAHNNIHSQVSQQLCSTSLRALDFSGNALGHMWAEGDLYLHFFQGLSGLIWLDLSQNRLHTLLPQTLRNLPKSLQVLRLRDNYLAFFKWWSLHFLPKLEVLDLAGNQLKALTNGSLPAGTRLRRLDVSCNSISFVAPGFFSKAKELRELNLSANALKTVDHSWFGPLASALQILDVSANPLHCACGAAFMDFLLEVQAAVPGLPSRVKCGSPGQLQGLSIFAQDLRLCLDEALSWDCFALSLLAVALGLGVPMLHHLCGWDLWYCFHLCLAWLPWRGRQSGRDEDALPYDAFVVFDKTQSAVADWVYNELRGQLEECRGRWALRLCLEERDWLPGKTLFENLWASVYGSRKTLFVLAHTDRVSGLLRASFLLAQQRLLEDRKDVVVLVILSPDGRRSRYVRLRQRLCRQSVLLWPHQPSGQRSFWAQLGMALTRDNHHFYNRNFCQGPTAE
protocol-description: HEK293-Blue-hTLR-9 cells assay
Format: cell-based
Parameters: host or cells: HEK293 (HEK-Blue hTLR9)
test-parameters: HEK293-Blue-hTLR9 cells, ODN2006 stimulation, 20 hrs, SEAP reporter; read-out: HEK/hTLR9 IC50
Could you write the number and then its unit?

Some compounds with known IC50 results, for comparison:
INSERT INTO results (compound, observable, result_value) VALUES
  ('C[C@@H]1CN(c2ccc(C#N)c3ncccc23)C[C@H](CN2CC(n3cc4c(n3)C[C@H](C)NC4)C2)O1', 'IC50', '122 nM'),
  ('CCN1CCc2cnn(C3CN(C[C@H]4CN(c5ccc(C#N)c6ncccc56)C[C@@H](C)O4)C3)c2C1', 'IC50', '153 nM'),
  ('C[C@@H]1CN(c2ccc(C#N)c3ncccc23)C[C@H](CN2CC(n3cc4c(n3)[C@@H](C)NCC4)C2)O1 (single isomer, unassigned)', 'IC50', '34 nM'),
  ('Cc1c2c(nn1C1CN(C[C@H]3CN(c4ccc(C#N)c5ncccc45)C[C@@H](C)O3)C1)CCN(C)C2', 'IC50', '128 nM'),
  ('C[C@@H]1CN(c2ccc(C#N)c3ncccc23)C[C@H](CN2CC(n3ncc4c3[C@H](C)NCC4)C2)O1 (single isomer, unassigned)', 'IC50', '62 nM'),
  ('C[C@@H]1CN(c2ccc(C#N)c3ncccc23)C[C@H](CN2CC(n3cc4c(n3)CN[C@@H](C)C4)C2)O1 (single isomer, unassigned)', 'IC50', '72 nM');

Please look at the items below and tell me IC50 for each one, in order.
1. C[C@@H]1CN(c2ccc(C#N)c3ncccc23)C[C@H](CN2CC(n3cc4c(n3)CCNC4)C2)O1
2. CCN1CCc2cn(C3CN(C[C@H]4CN(c5ccc(C#N)c6ncccc56)C[C@@H](C)O4)C3)nc2C1
3. C[C@@H]1CN(c2ccc(C#N)c3ncccc23)C[C@H](CN2CC(n3cc4c(n3)[C@H](C)NCC4)C2)O1 (single isomer, unassigned)
4. C[C@@H]1CN(c2ccc(C#N)c3ncccc23)C[C@H](CN2CC(n3ncc4c3CNC4)C2)O1

Response:
66 nM
116 nM
36 nM
143 nM

Answer for every listed entry: what is its IC50? The entries follow.
1. Cc1c2c(nn1C1CN(C[C@H]3CN(c4ccc(C#N)c5ncccc45)C[C@@H](C)O3)C1)CCNC2
2. C[C@@H]1CN(c2ccc(C#N)c3ncccc23)C[C@H](CN2CC(n3cc4c(n3)CN(C)CC4)C2)O1

Response:
1: 118 nM; 2: 137 nM

Parameters: items (list). Returns: IC50 for each item.
1. CC(C)N1CCc2cnn(C3CN(C[C@H]4CN(c5ccc(C#N)c6ncccc56)C[C@@H](C)O4)C3)c2C1
2. Cc1nn(C2CN(C[C@H]3CN(c4ccc(C#N)c5ncccc45)C[C@@H](C)O3)C2)c2c1CCNC2

Response:
["125 nM", "134 nM"]
